# study.system: N-type calcium channel (α1B (Cav2.2), β3 and α2δ subunits) (Homo sapiens)
# assay.procedure: Functional Assay: Antagonism of N-Type Calcium Channel (FDSS calcium mobilization, KCl depolarization)
# Assay type: cell-based
# condition: HEK cell line, 50 mM KCl depolarization, six-point concentration-response; read-out: FDSS IC50
For each record, write down the corresponding pIC50.
Reminder that pIC50 is minus the log10 of a molar concentration.

Q: pIC50 lookup needed for COc1ccccc1-n1nc2c(c1-c1ccc(Cl)cc1)C[C@H](OC(=O)C1CCC1)C2 , thanks.
A: 7.51

Q: Can you share its pIC50? I mean this compound: COc1ccccc1-n1nc2c(c1-c1ccc(N(C)C)cc1)CC1(C2)OCC(C)(C)CO1
A: 7.92

Q: Data request, read-out pIC50, for COc1ccccc1-n1nc2c(c1-c1ccc(N(C)C)nc1)CC1(C2)OCC(C)(C)CO1
A: 7.54

Q: What value of pIC50 has been recorded for this entry: CC(C)S(=O)(=O)N(C)[C@@H]1Cc2nn(-c3cccc4c3OCC4)c(-c3ccc(Cl)cc3)c2C1
A: 7.47

Q: Give its pIC50 value. Item: CCOc1ccc(-c2c3c(nn2-c2ccccc2OC)CC2(C3)OC(C)(C)C(C)(C)O2)cn1
A: 8.00

Q: What does the record list as pIC50 for CCOC(=O)c1cncc(C2Cc3nn(-c4ccccc4OC)c(-c4ccc(Cl)cc4)c3C2)c1 (stereo not shown) ?
A: 7.18

Q: Reported pIC50 for CCOC(=O)C1Cc2nn(-c3ccccc3CC)c(-c3ccc(Cl)cc3)c2C1 (stereo not shown) : what is it?
A: 7.05

Q: Which pIC50 value is on record for COc1ccccc1-n1nc2c(c1-c1ccc(Cl)cc1)CC(N1CCC(C)CC1)C2 (stereo not shown) ?
A: 7.36

Q: # get_value(readout='pIC50', item= COc1ccccc1-n1nc2c(c1-c1ccc(Cl)cc1)CC(CCO)C2 (stereo not shown) )
A: 6.70

Q: What does the record list as pIC50 for COc1ccccc1-n1nc2c(c1-c1ccc(Cl)cc1)CC(CCNC(C)=O)C2 (stereo not shown) ?
A: 7.15

Q: I have this compound here, COc1ccccc1-n1nc2c(c1-c1ccc(C#N)cc1)CC(CC1CCCCC1)C2 (stereo not shown) , and I need its recorded pIC50.
A: 6.57

Q: Returns the measured pIC50 for the input compound. Input: COc1ccccc1-n1nc2c(c1-c1ccc(Cl)cc1)CC1(C2)O[C@H](C)C[C@@H](C)O1 (stereo partly shown)
A: 8.36

Q: Tell me the measured pIC50 of COc1ccc(-c2c3c(nn2-c2ccccc2OC)C[C@H](N(C)S(=O)(=O)N(C)C)C3)cn1 , please.
A: 7.89

Q: Can you look up the measured pIC50 of COc1ccccc1-n1nc2c(c1-c1ccc(Cl)s1)CC1(C2)OC(C)(C)C(C)(C)O1 for me?
A: 7.52

Q: Item COc1ccccc1-n1nc2c(c1-c1ccc(Cl)cc1)CC(C1CCC(C)(C)CC1)C2 (stereo not shown) has what recorded pIC50?
A: 6.55

Q: What value of measured pIC50 is listed for COc1ccccc1-n1nc2c(c1-c1ccc(Cl)cc1)C[C@H](Oc1ccccc1)C2 ?
A: 6.89

###

# study.system: N-type calcium channel (Homo sapiens)
# Sequence (Q00975 whole entry): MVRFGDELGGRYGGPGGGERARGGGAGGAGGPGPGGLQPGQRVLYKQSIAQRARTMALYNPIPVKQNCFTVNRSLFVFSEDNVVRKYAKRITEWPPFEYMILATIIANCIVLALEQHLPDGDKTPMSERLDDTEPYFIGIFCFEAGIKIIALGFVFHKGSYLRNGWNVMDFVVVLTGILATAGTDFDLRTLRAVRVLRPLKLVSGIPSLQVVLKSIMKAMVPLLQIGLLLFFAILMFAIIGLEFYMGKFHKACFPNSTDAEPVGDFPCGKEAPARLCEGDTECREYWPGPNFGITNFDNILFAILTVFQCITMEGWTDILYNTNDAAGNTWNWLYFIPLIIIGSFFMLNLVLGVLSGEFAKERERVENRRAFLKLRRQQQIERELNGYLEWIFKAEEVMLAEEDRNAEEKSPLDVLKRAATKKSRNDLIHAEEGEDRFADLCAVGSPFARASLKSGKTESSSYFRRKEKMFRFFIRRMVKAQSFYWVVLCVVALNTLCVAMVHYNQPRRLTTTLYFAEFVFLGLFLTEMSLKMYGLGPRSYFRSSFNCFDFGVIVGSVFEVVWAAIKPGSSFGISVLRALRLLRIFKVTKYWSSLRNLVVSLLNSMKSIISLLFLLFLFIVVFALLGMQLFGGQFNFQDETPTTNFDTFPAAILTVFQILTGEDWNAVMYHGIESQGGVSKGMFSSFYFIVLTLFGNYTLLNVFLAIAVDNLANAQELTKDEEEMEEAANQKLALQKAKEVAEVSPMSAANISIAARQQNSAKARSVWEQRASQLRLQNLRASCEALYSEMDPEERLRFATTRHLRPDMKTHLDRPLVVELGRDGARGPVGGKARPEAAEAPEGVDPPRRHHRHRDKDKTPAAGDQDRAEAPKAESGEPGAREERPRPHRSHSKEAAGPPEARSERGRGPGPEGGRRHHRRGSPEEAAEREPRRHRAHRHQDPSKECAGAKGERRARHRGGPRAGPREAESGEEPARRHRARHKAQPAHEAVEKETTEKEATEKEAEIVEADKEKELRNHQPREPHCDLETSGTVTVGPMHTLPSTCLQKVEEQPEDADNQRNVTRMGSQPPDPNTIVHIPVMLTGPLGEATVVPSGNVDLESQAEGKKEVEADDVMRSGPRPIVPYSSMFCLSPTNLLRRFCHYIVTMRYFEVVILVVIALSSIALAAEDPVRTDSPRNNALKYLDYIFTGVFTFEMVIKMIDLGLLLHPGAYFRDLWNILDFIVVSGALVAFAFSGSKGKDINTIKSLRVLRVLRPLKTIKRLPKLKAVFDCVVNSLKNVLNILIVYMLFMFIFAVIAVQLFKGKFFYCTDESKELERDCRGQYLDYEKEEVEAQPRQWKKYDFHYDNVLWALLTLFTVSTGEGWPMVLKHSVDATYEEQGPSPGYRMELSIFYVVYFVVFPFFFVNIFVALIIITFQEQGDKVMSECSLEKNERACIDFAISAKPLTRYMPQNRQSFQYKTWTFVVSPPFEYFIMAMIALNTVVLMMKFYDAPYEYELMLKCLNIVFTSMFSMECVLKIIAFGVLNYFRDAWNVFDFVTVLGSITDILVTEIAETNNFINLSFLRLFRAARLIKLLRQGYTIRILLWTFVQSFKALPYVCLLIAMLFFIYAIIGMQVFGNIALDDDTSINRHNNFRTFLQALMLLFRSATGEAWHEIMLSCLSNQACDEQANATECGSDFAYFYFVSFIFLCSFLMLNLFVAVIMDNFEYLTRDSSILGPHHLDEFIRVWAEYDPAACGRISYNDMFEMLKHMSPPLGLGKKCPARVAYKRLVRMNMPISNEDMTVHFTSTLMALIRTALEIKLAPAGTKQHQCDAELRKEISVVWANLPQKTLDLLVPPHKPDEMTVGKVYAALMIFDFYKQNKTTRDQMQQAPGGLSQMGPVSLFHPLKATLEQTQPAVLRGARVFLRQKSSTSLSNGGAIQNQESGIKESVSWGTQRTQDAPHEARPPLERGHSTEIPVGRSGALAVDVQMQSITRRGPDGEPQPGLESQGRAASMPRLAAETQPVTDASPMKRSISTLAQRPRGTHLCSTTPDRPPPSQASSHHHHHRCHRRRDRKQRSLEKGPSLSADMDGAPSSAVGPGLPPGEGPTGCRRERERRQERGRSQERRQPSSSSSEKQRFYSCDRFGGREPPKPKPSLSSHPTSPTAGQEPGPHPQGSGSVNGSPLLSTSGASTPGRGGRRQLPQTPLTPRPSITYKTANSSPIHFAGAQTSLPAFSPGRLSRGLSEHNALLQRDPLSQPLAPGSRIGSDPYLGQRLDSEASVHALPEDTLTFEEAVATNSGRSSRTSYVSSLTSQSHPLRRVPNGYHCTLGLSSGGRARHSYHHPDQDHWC
# Sequence (P54284 whole entry partner): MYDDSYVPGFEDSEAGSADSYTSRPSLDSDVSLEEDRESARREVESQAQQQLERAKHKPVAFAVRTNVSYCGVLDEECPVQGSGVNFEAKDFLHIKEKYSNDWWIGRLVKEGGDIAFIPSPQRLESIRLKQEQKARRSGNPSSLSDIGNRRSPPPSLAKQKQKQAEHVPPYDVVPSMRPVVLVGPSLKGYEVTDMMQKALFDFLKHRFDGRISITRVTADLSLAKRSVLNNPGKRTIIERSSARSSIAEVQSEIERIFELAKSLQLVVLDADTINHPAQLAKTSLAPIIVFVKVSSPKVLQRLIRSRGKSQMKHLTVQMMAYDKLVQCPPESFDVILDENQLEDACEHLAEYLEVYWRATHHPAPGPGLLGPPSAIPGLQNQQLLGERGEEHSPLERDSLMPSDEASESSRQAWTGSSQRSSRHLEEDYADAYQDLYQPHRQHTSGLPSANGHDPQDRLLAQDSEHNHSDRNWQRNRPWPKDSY
# Sequence (P54289 25-946 partner limits assumed): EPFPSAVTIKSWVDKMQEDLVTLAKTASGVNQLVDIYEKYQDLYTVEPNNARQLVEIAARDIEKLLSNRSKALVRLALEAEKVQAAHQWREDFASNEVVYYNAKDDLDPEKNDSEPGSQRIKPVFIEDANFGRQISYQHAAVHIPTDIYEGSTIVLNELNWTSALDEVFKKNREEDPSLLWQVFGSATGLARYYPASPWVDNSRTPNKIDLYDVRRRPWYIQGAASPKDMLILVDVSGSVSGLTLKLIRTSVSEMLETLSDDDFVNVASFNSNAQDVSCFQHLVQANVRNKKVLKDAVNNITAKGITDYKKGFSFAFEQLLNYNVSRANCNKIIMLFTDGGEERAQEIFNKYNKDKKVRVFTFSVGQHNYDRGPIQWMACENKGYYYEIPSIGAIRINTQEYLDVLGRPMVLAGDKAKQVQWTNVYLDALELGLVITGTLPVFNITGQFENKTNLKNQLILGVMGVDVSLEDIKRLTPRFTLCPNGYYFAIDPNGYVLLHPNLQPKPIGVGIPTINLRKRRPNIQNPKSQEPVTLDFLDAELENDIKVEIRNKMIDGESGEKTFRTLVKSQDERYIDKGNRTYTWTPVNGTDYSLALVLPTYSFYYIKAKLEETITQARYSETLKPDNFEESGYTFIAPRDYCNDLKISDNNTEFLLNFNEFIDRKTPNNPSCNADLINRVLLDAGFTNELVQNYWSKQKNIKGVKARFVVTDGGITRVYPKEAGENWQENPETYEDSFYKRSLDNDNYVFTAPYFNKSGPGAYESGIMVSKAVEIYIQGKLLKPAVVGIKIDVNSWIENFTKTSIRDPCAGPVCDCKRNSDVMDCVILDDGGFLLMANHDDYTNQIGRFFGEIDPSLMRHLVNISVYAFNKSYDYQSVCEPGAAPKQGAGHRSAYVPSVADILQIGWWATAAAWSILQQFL
# Sequence (P54289 947-1103 partner limits assumed): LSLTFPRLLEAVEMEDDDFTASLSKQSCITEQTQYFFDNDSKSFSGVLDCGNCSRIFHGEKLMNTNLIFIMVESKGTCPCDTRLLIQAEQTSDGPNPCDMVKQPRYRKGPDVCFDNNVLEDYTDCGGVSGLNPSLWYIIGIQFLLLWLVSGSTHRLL
# assay.procedure: Automated Electrophysiology Assay (QPatch-HT whole-cell patch clamp; low- and high-frequency stimulation)
# Format: cell-based
# condition: 0.1 μM; high-frequency stimulation (15th pulse); read-out: QPatch at High Frequency % Inhibition
inhibition at 0.1 µM below 20% gives no (0); inhibition at 0.1 µM at or above it gives yes (1).

Q: Hi, just wondering whether COc1ccccc1-n1nc2c(c1-c1ccc(Cl)cc1)CC1(C2)O[C@@H](C)C[C@H](C)O1 (stereo partly shown) [Compound 101] shows inhibition at 0.1 µM of 20% or higher.
A: yes (1)

Q: For this compound, is measured inhibition at 0.1 µM 20% or higher? CCOc1ccccc1-n1nc2c(c1-c1ccc(Cl)cc1)CC(n1ccnc1)C2 (stereo not shown) [Compound 39]
A: yes (1)

Q: Reported inhibition at 0.1 µM at or above 20%? CCOc1ccccc1-n1nc2c(c1-c1ccc(Cl)cc1)C[C@@H](NS(=O)(=O)C(C)C)C2 [Compound 44]
A: yes (1)

Q: Say whether COc1ccccc1-n1nc2c(c1-c1ccc(Cl)cc1)CC1(C2)O[C@H]2CCCC[C@H]2O1 (stereo partly shown) [Compound 112] shows inhibition at 0.1 µM of 20% or more.
A: yes (1)

Q: Hi, just wondering whether CCOc1ccccc1-n1nc2c(c1-c1ccc(Cl)cc1)CC(=O)C2 [Compound 36] shows inhibition at 0.1 µM of 20% or higher.
A: yes (1)

Q: Determine whether measured inhibition at 0.1 µM meets or exceeds 20% for CCOc1ccccc1-n1nc2c(c1-c1ccc(Cl)cc1)C[C@@H](n1ccnc1)C2 [Compound 43]
A: no (0)

Q: In plain terms: is recorded inhibition at 0.1 µM at least 20% for COc1ccccc1-n1nc2c(c1-c1ccc(N(C)C)nc1)CC1(C2)OC(C)(C)C(C)(C)O1 [Compound 110] ?
A: no (0)

Q: Answer whether inhibition at 0.1 µM of COc1ccccc1-n1nc2c(c1-c1ccc(N(C)C)cc1)CC1(C2)OCC(C)(C)CO1 [Compound 93] is greater than or equal to 20%.
A: yes (1)

Q: Please indicate if the recorded inhibition at 0.1 µM for COc1ccccc1-n1nc2c(c1-c1ccc(Cl)cc1)CC(N1CCOCC1)C2 (stereo not shown) [Compound 68] meets or exceeds 20%.
A: yes (1)

Q: Reported inhibition at 0.1 µM at or above 20%? CCOc1ccccc1-n1nc2c(c1-c1ccc(Cl)cc1)C[C@@H](NC(=O)C(F)(F)F)C2 [Compound 45]
A: yes (1)

Q: Reported inhibition at 0.1 µM reaches at least 20% for COc1ccccc1-n1nc2c(c1-c1ccc(Cl)cc1)CC1(C2)O[C@H]2CCC[C@@H]2O1 [Compound 113] ?
A: no (0)

Q: Check the entry COc1ccccc1-n1nc2c(c1-c1ccc(Cl)cc1)C[C@H](OCC(C)C)C2 [Compound 85] : does inhibition at 0.1 µM equal or exceed 20%?
A: no (0)

Q: Check this compound for inhibition at 0.1 µM at or above 20%: COc1ccccc1-n1nc2c(c1-c1ccc(Cl)cc1)CC1(C2)O[C@H](C)C[C@@H](C)O1 (stereo partly shown) [Compound 100]
A: yes (1)

Q: Is reported inhibition at 0.1 µM greater than or equal to 20% here: CCC(CC)C(=O)O[C@@H]1Cc2nn(-c3ccccc3OC)c(-c3ccc(Cl)cc3)c2C1 [Compound 70]
A: no (0)

Q: Identify whether the reported inhibition at 0.1 µM of the following compound is 20% or greater: COc1ccccc1-n1nc2c(c1-c1ccc(Cl)cc1)CC(N1CCC(F)(F)C1)C2 (stereo not shown) [Compound 123]
A: yes (1)

Q: Is it the case that COc1ccccc1-n1nc2c(c1-c1ccc(Cl)cc1)CC(OC(=O)N1CCOCC1)C2 (stereo not shown) [Compound 29] has inhibition at 0.1 µM reaching or exceeding 20%?
A: yes (1)

###

# study.system: N-type calcium channel (Homo sapiens)
# assay.procedure: Automated Electrophysiology Assay (QPatch-HT whole-cell patch clamp; low- and high-frequency stimulation)
# Format: cell-based
# condition: 0.1 μM; high-frequency stimulation (15th pulse); read-out: QPatch at High Frequency % Inhibition
endpoint: inhibition at 0.1 µM
Report the figure along with its unit, number first.

Q: Using the record for COc1ccccc1-n1nc2c(c1-c1ccc(N(C)C)nc1)CC1(C2)OCC(C)(C)CO1 [Compound 97] , report its inhibition at 0.1 µM.
A: 33%

Q: Field request: inhibition at 0.1 µM | item: CCOc1ccccc1-n1nc2c(c1-c1ccc(Cl)cc1)CC(OC(=O)N(C)C)C2 (stereo not drawn) [Compound 30]
A: 25%

Q: Looking for the measured inhibition at 0.1 µM of CCOc1ccccc1-n1nc2c(c1-c1ccc(Cl)cc1)CC(N(C)S(=O)(=O)N(C)C)C2 (stereo not drawn) [Compound 48] , can you help?
A: 63%

Q: Suppose we examine the compound CCOc1ccccc1-n1nc2c(c1-c1ccc(Cl)cc1)CC(OC(=O)N1CCOCC1)C2 (stereo not drawn) [Compound 31] ; what inhibition at 0.1 µM value has been reported?
A: 22%

Q: Sample COc1ccccc1-n1nc2c(c1-c1ccc(Cl)cc1)C[C@H](OC(C)C)C2 [Compound 67] — what was its inhibition at 0.1 µM?
A: 61%

Q: Recorded inhibition at 0.1 µM for CCC(CC)C(=O)O[C@H]1Cc2nn(-c3ccccc3OC)c(-c3ccc(Cl)cc3)c2C1 [Compound 55] , please?
A: 29%

Q: What does the record list as inhibition at 0.1 µM for CCOc1ccccc1-n1nc2c(c1-c1ccc(Cl)cc1)C[C@@H](N(C)S(=O)(=O)N(C)C)C2 [Compound 46] ?
A: 50%

Q: Data request, read-out inhibition at 0.1 µM, for COc1ccccc1-n1nc2c(c1-c1ccc(Cl)cc1)CC1(C2)OCC(C)(C)CO1 [Compound 71]
A: 37%

Q: If you can, please state the reported inhibition at 0.1 µM value of COc1ccccc1-n1nc2c(c1-c1ccc(Cl)cc1)C[C@H](OC1CCCC1)C2 [Compound 90] .
A: 21%

Q: Requested field: inhibition at 0.1 µM. Item: COc1ccccc1-n1nc2c(c1-c1ccc(Cl)cc1)CC(OC(=O)N(C)C)C2 (stereo not drawn) [Compound 28]
A: 45%

Q: May I ask what inhibition at 0.1 µM has been recorded for COc1ccccc1-n1nc2c(c1-c1ccc(Cl)cc1)C[C@H](OC1CCCCO1)C2 (stereo partly drawn) [Compound 76] ?
A: 42%

Q: If you can, please state the reported inhibition at 0.1 µM value of CCOc1ccc(-c2c3c(nn2-c2ccccc2OC)CC2(C3)OC(C)(C)C(C)(C)O2)cn1 [Compound 108] .
A: 13%
